meta.source: ChEMBL document CHEMBL2074233

# System: Solute carrier family 22 member 1 (Homo sapiens, UniProt O15245)
# Sequence (O15245 whole entry): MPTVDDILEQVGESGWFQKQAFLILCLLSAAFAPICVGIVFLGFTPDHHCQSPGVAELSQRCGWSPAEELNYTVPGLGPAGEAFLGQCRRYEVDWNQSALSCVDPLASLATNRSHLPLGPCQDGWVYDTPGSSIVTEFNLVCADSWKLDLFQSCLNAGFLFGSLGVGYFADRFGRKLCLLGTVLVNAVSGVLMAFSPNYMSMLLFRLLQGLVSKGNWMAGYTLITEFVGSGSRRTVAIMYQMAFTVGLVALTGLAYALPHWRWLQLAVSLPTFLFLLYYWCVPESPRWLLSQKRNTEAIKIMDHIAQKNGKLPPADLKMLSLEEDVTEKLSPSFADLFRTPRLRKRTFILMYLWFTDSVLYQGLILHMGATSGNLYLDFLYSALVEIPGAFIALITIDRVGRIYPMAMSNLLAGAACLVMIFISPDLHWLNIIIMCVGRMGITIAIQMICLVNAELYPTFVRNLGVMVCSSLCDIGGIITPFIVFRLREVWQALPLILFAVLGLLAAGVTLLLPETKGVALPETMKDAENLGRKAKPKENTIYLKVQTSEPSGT
# Assay text: TP_TRANSPORTER: inhibition of MPP+ uptake (MPP+: 0.025 uM) in OCT1-expressing HEK293 cells
Measured endpoint: pIC50
Just the number, please; pIC50 means minus log10 of the concentration in mol/L.

Consider the following illustrative entries.
>>> value_observed("C[C@]12C[C@H](O)[C@H]3[C@@H](CCC4=CC(=O)CC[C@@]43C)[C@@H]1CC[C@@H]2C(=O)CO")
4.66
>>> value_observed("CC(=O)[C@H]1CC[C@H]2[C@@H]3CCC4=CC(=O)CC[C@]4(C)[C@H]3CC[C@]12C")
5.52

Query: pIC50; subject: CCN1/C(=C/c2ccc3ccccc3[n+]2CC)C=Cc2ccccc21
Reply: 6.01
